Molecular target: T1, recombinant soluble human C4.4a (human, UniProt O95274 31-308)
T1 construct: recombinant, soluble, purified protein; also called hC4.4a; full length C4.4a
T1 sequence: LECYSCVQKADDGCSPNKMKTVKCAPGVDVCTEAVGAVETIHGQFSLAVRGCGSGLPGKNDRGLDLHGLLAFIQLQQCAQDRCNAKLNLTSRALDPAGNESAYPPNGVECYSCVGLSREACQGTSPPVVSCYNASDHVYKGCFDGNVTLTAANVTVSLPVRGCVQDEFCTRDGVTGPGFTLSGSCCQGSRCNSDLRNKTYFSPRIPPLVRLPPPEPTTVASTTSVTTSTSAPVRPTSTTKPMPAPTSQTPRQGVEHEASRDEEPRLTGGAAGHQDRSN
Assay: direct ELISA, Fab supernatant on coated human C4.4a, signal normalized to Fab quantity

# binder, normalized affinity signal (average)
rows = [
    ("M31-B01 Fab LC N95aK (Fab, V domains shown, Fab with 3×HA-tag and hexa-histidine tag at the C-terminus of the heavy chain, culture supernatant) VH: EVQLLESGGGLVQPGGSLRLSCAASGFTFSNAWMSWVRQAPGKGLEWVSYISSSGSTIYYADSVKGRFTISRDNSKNTLYLQMNSLRAEDTAVYYCAREGLWAFDYWGQGTLVTVTS VL: QSVLTQPPSASGTPGQRVTISCTGSSSNIGAGYVVHWYQQLPGTAPKLLIYDNNKRPSGVPDRFSGSKSGTSASLAISGLRSEDEADYYCAAWDDRLKGPVFGGGTKLTVLG", 1.11),
    ("M31-B01 Fab LC R94M (Fab, V domains shown, Fab with 3×HA-tag and hexa-histidine tag at the C-terminus of the heavy chain, culture supernatant) VH: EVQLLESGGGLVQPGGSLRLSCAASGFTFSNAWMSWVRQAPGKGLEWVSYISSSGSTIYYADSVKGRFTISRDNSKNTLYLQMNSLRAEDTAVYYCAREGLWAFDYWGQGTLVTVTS VL: QSVLTQPPSASGTPGQRVTISCTGSSSNIGAGYVVHWYQQLPGTAPKLLIYDNNKRPSGVPDRFSGSKSGTSASLAISGLRSEDEADYYCAAWDDMLNGPVFGGGTKLTVLG", 1.3),
    ("M31-B01 Fab HC Y102K (Fab, V domains shown, Fab with 3×HA-tag and hexa-histidine tag at the C-terminus of the heavy chain, culture supernatant) VH: EVQLLESGGGLVQPGGSLRLSCAASGFTFSNAWMSWVRQAPGKGLEWVSYISSSGSTIYYADSVKGRFTISRDNSKNTLYLQMNSLRAEDTAVYYCAREGLWAFDKWGQGTLVTVTS VL: QSVLTQPPSASGTPGQRVTISCTGSSSNIGAGYVVHWYQQLPGTAPKLLIYDNNKRPSGVPDRFSGSKSGTSASLAISGLRSEDEADYYCAAWDDRLNGPVFGGGTKLTVLG", 1.49),
    ("M31-B01 Fab LC W91Y (Fab, V domains shown, Fab with 3×HA-tag and hexa-histidine tag at the C-terminus of the heavy chain, culture supernatant) VH: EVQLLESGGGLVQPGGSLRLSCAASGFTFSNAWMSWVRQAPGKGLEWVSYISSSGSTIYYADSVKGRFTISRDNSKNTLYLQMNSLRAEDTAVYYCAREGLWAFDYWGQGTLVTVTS VL: QSVLTQPPSASGTPGQRVTISCTGSSSNIGAGYVVHWYQQLPGTAPKLLIYDNNKRPSGVPDRFSGSKSGTSASLAISGLRSEDEADYYCAAYDDRLNGPVFGGGTKLTVLG", 4.97),
    ("M31-B01 Fab LC W91E (Fab, V domains shown, Fab with 3×HA-tag and hexa-histidine tag at the C-terminus of the heavy chain, culture supernatant) VH: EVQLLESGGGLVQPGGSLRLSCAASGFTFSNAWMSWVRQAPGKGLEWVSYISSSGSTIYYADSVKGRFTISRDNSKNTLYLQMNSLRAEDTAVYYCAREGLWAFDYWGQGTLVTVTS VL: QSVLTQPPSASGTPGQRVTISCTGSSSNIGAGYVVHWYQQLPGTAPKLLIYDNNKRPSGVPDRFSGSKSGTSASLAISGLRSEDEADYYCAAEDDRLNGPVFGGGTKLTVLG", 3.17),
]
